Sourced from the supplement of paper PMC10567573

B1: SNX8 (parent)
chain: VVLKLFLSFSGSDVQNKLKESAQC

# Variants of: B1
# ASSAY_METHOD_TEXT: protein stability index of a GFP-peptide fusion (GPS, HEK-293T) (PSI 1-6); higher = more stable;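 also: lentivirally expressed fusions sorted by FACS into six bins by GFP to DsRed ratio, PSI derived from sequencing read proportions per bin multiplied by bin number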
# RUN_CONDITIONS: c terminus: a fixed tail appended

SEQUENCE_DATA: VVLKLFLSFSGSDVQNKMKESAQC [L18M]
protein stability index: 4.11

SEQUENCE_DATA: VVLKLFLSFSGSDVQNKLGESAQC [K19G]
protein stability index: 3.41

SEQUENCE_DATA: VVLKLFLSFSGSDKQNKLKESAQC [V14K]
protein stability index: 1.82

SEQUENCE_DATA: VVLKLFLSFSGWDVQNKLKESAQC [S12W]
protein stability index: 3.39

SEQUENCE_DATA: VVLKLFLSFSGSDVQNKLMESAQC [K19M]
protein stability index: 2.37

SEQUENCE_DATA: VVLKLFLSFSGIDVQNKLKESAQC [S12I]
protein stability index: 2.62

SEQUENCE_DATA: VVFKLFLSFSGSDVQNKLKESAQC [L3F]
protein stability index: 3.59

SEQUENCE_DATA: VVLKLFLSFSGSDYQNKLKESAQC [V14Y]
protein stability index: 2.62

SEQUENCE_DATA: VVLKLFLGFSGSDVQNKLKESAQC [S8G]
protein stability index: 1.91

SEQUENCE_DATA: VVLKEFLSFSGSDVQNKLKESAQC [L5E]
protein stability index: 1.79

SEQUENCE_DATA: VVLFLFLSFSGSDVQNKLKESAQC [K4F]
protein stability index: 2.27

SEQUENCE_DATA: VVLKLFLSQSGSDVQNKLKESAQC [F9Q]
protein stability index: 4.89

SEQUENCE_DATA: VVLKLFLSFSGSDVQNKLKESAQS [C24S]
protein stability index: 3.35

SEQUENCE_DATA: VVLKLFLSFAGSDVQNKLKESAQC [S10A]
protein stability index: 1.79

SEQUENCE_DATA: VSLKLFLSFSGSDVQNKLKESAQC [V2S]
protein stability index: 2.79

SEQUENCE_DATA: VVLKLSLSFSGSDVQNKLKESAQC [F6S]
protein stability index: 3.13

SEQUENCE_DATA: VVLKRFLSFSGSDVQNKLKESAQC [L5R]
protein stability index: 1.92

SEQUENCE_DATA: VVLELFLSFSGSDVQNKLKESAQC [K4E]
protein stability index: 4.58

SEQUENCE_DATA: VVLKLFLSFSGKDVQNKLKESAQC [S12K]
protein stability index: 3.15

SEQUENCE_DATA: VVLKLFLSFSGSDVQNKLKESAQN [C24N]
protein stability index: 2.99

SEQUENCE_DATA: VVLKLFLSFSGSDVQNKLKEMAQC [S21M]
protein stability index: 2.03

SEQUENCE_DATA: VVLKLFLSFSGSDVQNKLKESYQC [A22Y]
protein stability index: 1.93

SEQUENCE_DATA: VVLKLFNSFSGSDVQNKLKESAQC [L7N]
protein stability index: 1.09

SEQUENCE_DATA: VVLKLFLSFSGSDVQNKLKCSAQC [E20C]
protein stability index: 3.61

SEQUENCE_DATA: VVLKLFLSFSGSDVQNKLKDSAQC [E20D]
protein stability index: 3.55

SEQUENCE_DATA: VVLKLFLSFSGSDVQNKLRESAQC [K19R]
protein stability index: 2.25

SEQUENCE_DATA: RVLKLFLSFSGSDVQNKLKESAQC [V1R]
protein stability index: 2.71

SEQUENCE_DATA: VVGKLFLSFSGSDVQNKLKESAQC [L3G]
protein stability index: 1.78

SEQUENCE_DATA: VVLKLPLSFSGSDVQNKLKESAQC [F6P]
protein stability index: 2.29

SEQUENCE_DATA: VVEKLFLSFSGSDVQNKLKESAQC [L3E]
protein stability index: 1.57

SEQUENCE_DATA: VVLKLFLSFSGSDVQNKLKLSAQC [E20L]
protein stability index: 1.89

SEQUENCE_DATA: VWLKLFLSFSGSDVQNKLKESAQC [V2W]
protein stability index: 3.59

SEQUENCE_DATA: VVLPLFLSFSGSDVQNKLKESAQC [K4P]
protein stability index: 3.99
